- ASSAYED_SYSTEM: Protein farnesyltransferase (Homo sapiens, UniProt P49354+P49356)
- ASSAY_DETAILS: Inhibition of human FTase after 15 mins by fluorimetric analysis
OUTCOME_MEASURE: IC50 (nM)
Report only the number, with the unit nM understood.

Study these solved cases before continuing.
[
  {
    "CHEMICAL_SMILES": "C[C@@]12CCC(=O)/C(=C\\NCCc3ccccc3)C1=C(O)C(=O)c1cc3c(cc12)C(=O)C=CC3=O",
    "IC50 / nM": 440
  },
  {
    "CHEMICAL_SMILES": "CCCCCN/C=C1\\C(=O)CC[C@]2(C)C1=C(O)C(=O)c1cc3c(cc12)C(=O)C=CC3=O",
    "IC50 / nM": 57
  }
]

Now look at this entry.
Input: // query IC50 value for entry `CC(C)=CCC/C(C)=C/CN/C=C1\C(=O)CC[C@]2(C)C1=C(O)C(=O)c1cc3c(cc12)C(=O)C=CC3=O`
Output: 31

###

- ASSAY_DETAILS: Inhibition of Saccharomyces cerevisiae FTase after 15 mins by fluorimetric analysis
The following compounds are shown together with reported IC50 values.
Give just the numeric value; nM need not be written.

Use these answered entries as a reference point.
[
  {
    "COMPOUND": "CC(C)=CCC/C(C)=C/CN/C=C1\\C(=O)CC[C@]2(C)C1=C(O)C(=O)c1cc3c(cc12)C(=O)C=CC3=O",
    "IC50 (nM)": 17
  },
  {
    "COMPOUND": "CC1=CCCC2(C)C1=C(O)C(=O)c1cc3c(cc12)C(=O)C=CC3=O (stereo not given)",
    "IC50 (nM)": 400
  },
  {
    "COMPOUND": "C[C@@]12CCC(=O)c3coc(c31)C(=O)c1cc3c(cc12)C(=O)C=CC3=O",
    "IC50 (nM)": 1600
  },
  {
    "COMPOUND": "CCCCCN/C=C1\\C(=O)CC[C@]2(C)C1=C(O)C(=O)c1cc3c(cc12)C(=O)C=CC3=O",
    "IC50 (nM)": 41
  }
]

Next compound, please.
Input: Recorded IC50 of `C[C@@]12CCC(=O)/C(=C\NCCc3ccccc3)C1=C(O)C(=O)c1cc3c(cc12)C(=O)C=CC3=O` , please.
Output: 310
